log10(DNAUC) values for the molecules below.
# Experiment Notes: Dose normalised AUC in human after po administration
# Reported Conditions: in vivo
Give log10 of DNAUC, with DNAUC taken in kg·min/L.

molecule="CCN[C@@H](C)Cc1cccc(C(F)(F)F)c1 [DEXFENFLURAMINE]" experimental_endpoint=log10(DNAUC) quantitative_readout=1.90

// query Provide measured log10(DNAUC) value, entry: COc1ccc(C(C)C)cc1CN[C@H]1C2CCN(CC2)[C@H]1C(c1ccccc1)c1ccccc1 [EZLOPITANT]
// result 2.10

* * *

# Experiment Notes: Dose normalised AUC in monkey after po administration
# Reported Conditions: macaca, in vivo
log10 of DNAUC values for the compounds below.
Give log10 of DNAUC, with DNAUC taken in kg·min/L.

compound="CN1CCN(c2c(F)cc3c(=O)c(C(=O)O)cn(CCF)c3c2F)CC1 [FLEROXACIN]" quantitative_readout=2.13
compound="CCN(CC)CC(=O)Nc1c(C)cccc1C [LIDOCAINE]" quantitative_readout=0.58

// query Provide measured log10 of DNAUC value, entry: COCCc1ccc(OCC(O)CNC(C)C)cc1 (stereo not given) [METOPROLOL]
// result 0.92

// query Provide measured log10 of DNAUC value, entry: COC(=O)C1=C(C)NC(C)=C(C(=O)OCCN(C)Cc2ccccc2)C1c1cccc([N+](=O)[O-])c1 (stereo not given) [NICARDIPINE]
// result 0.58

// query Provide measured log10 of DNAUC value, entry: C[C@H](C(=O)O)c1ccc2oc(-c3ccc(F)cc3)nc2c1 [FLUNOXAPROFEN]
// result 3.17

* * *

log10(DNAUC) values for the compounds below.
# Experiment Notes: Dose normalised AUC in human after po administration
# Reported Conditions: in vivo
Give log10 of DNAUC, with DNAUC taken in kg·min/L.

Some compounds with recorded log10(DNAUC):
compound=COc1c(N2C[C@@H]3CCCN[C@@H]3C2)c(F)cc2c(=O)c(C(=O)O)cn(C3CC3)c12 quantitative_readout=2.57
compound=COc1ccc2c(c1)c(CC(=O)O)c(C)n2C(=O)c1ccc(Cl)cc1 quantitative_readout=2.69
compound=O=P(O)(O)C(Sc1ccc(Cl)cc1)P(=O)(O)O quantitative_readout=2.46
compound=CC[C@H]1OC(=O)[C@H](C)[C@@H](O[C@H]2C[C@@](C)(OC)[C@@H](O)[C@H](C)O2)[C@H](C)[C@@H](O[C@@H]2O[C@H](C)C[C@H](N(C)C)[C@H]2O)[C@](C)(O)C[C@@H](C)C(=O)[C@H](C)[C@@H](O)[C@]1(C)O quantitative_readout=1.57

// query Provide measured log10(DNAUC) value, entry: C1=C(c2ccccc2)CCN(C[C@@H]2CCC=C(c3ccccc3)C2)C1
// result 0.42

// query Provide measured log10(DNAUC) value, entry: COC(=O)C1=C(C)NC(C)=C(C(=O)OCC(C)C)C1c1ccccc1[N+](=O)[O-] (stereo not drawn)
// result 0.08

// query Provide measured log10(DNAUC) value, entry: CN1CCN(c2c(F)cc3c(=O)c(C(=O)O)cn(CCF)c3c2F)CC1
// result 2.64

// query Provide measured log10(DNAUC) value, entry: Cc1cccc(C)c1NC(=O)NCCCNC(C)C
// result 1.99

// query Provide measured log10(DNAUC) value, entry: CC(C)c1nc(CN(C)C(=O)N[C@H](C(=O)N[C@@H](Cc2ccccc2)C[C@H](O)[C@H](Cc2ccccc2)NC(=O)OCc2cncs2)C(C)C)cs1
// result 2.57

// query Provide measured log10(DNAUC) value, entry: O=C(O)C(Cl)c1ccc(C2CCCCC2)c(Cl)c1 (stereo not drawn)
// result 3.42

// query Provide measured log10(DNAUC) value, entry: CCn1cc(C(=O)O)c(=O)c2cc(F)c(N3CCN(C)CC3)cc21
// result 2.70

// query Provide measured log10(DNAUC) value, entry: CC(=O)NCCOC(=O)C(Oc1cccc(C(F)(F)F)c1)c1ccc(Cl)cc1 (stereo not drawn) [HALOFENATE]
// result 4.18

// query Provide measured log10(DNAUC) value, entry: CCCCN1C[C@H](O)[C@@H](O)[C@H](O)[C@H]1CO
// result 2.55

// query Provide measured log10(DNAUC) value, entry: CC(C)N(CCC(C(N)=O)(c1ccccc1)c1ccccn1)C(C)C (stereo not drawn) [DISOPYRAMIDE]
// result 2.74

* * *

DNAUC values for the compounds below.
# Experiment Notes: Dose normalised AUC in human after po administration
# Reported Conditions: in vivo
Form entry: enter the amount, then its unit.

Some compounds with recorded DNAUC:
compound="CC(C)(C)S(=O)(=O)C[C@@H](Cc1ccccc1)C(=O)N[C@@H](Cc1cnc[nH]1)C(=O)N[C@@H](CC1CCCCC1)[C@@H](O)[C@@H](O)C1CC1 [REMIKIREN]" result="0.2 kg·min/L"
compound="CC(C)(C)NC(=O)[C@@H]1CN(Cc2cccnc2)CCN1C[C@@H](O)C[C@@H](Cc1ccccc1)C(=O)N[C@H]1c2ccccc2C[C@H]1O.O [INDINAVIR]" result="52.98 kg·min/L"
compound="O=C(O)CCc1nc(-c2ccccc2)c(-c2ccccc2)o1 [OXAPROZIN]" result="9.07 kg·min/L"
compound="COc1nccc(-c2c(-c3ccc(F)cc3)ncn2C2CCNCC2)n1 [SB-242235]" result="141 kg·min/L"
compound="CN1C(C(=O)Nc2nccs2)=C(O)c2ccccc2S1(=O)=O [SUDOXICAM]" result="8161.43 kg·min/L"
compound="NCC1(CC(=O)O)CCCCC1 [GABAPENTIN]" result="369.82 kg·min/L"
compound=Cn1cc(/C=C2/C(=O)N3C(C(=O)O)=CS[C@H]23)nn1 result="5 kg·min/L"
compound="O=c1ccc2ccccc2o1 [COUMARIN]" result="2.03 kg·min/L"

// query Provide measured DNAUC value, entry: CC1=NC(=O)C(CCN(C(C)C)C(C)C)(c2ccccc2)C2CCCCN12 (centres undefined) [ACTISOMIDE]
// result 51.51 kg·min/L
